test: MTT cell viability assay, Hep G2 cells (serum-free DMEM); conditions: human, Hep G2 cells, Cell viability, taxol 10 nM, 96 hr
parameter: viability at 96 h, 10 nM

Bench note: what viability at 96 h, 10 nM did `CC(=O)O[C@H]1C(=O)[C@@]2(C)[C@H]([C@H](OC(=O)c3ccccc3)[C@]3(O)C[C@H](OC(=O)[C@H](O)[C@@H](NC(=O)c4ccccc4)c4ccccc4)C(C)=C1C3(C)C)[C@]1(OC(C)=O)CO[C@@H]1C[C@@H]2O` show?
22.7%

###

system: Hep 3B cells; experiment: MTT cell viability assay, Hep 3B cells (serum-free DMEM); conditions: Homo sapiens, Hep3B, 72 h, read-out: IC50 (cell viability), 72 hr
parameter: pIC50
pIC50 (log units): -log10 of the concentration in mol/L.

Examples from the recorded data:
O=C(/C=C/c1ccc(O)c(O)c1)OCCc1ccccc1 [CAPE, caffeic acid phenethyl ester] | 5.02
COc1cccc2c1C(=O)c1c(O)c3c(c(O)c1C2=O)C[C@@](O)(C(=O)CO)C[C@@H]3O[C@H]1C[C@H](N)[C@H](O)[C@H](C)O1 [DOX, doxorubicin] | 6.00

Moving on to the next compound.
Any idea what pIC50 was measured for CCCCCCCCOC(=O)/C=C/c1ccc(O)c(O)c1 [CAO, caffeic acid 1-octyl ester] ?
5.54
